assay: Phase 1 study: plasma pharmacokinetics in patients; format: in vivo, human; settings: human, plasma, po, 400 mg, patient plasma, oral (1-g) 400 mg QD, C1D15, n = 5, mean; read-out: Cmax
readout kind: Cmax (ng/mL)
Just the number in ng/mL, nothing appended.

Ask: Cmax lookup needed for `O=C1CC[C@H](N2Cc3cc(N4CCN(CC5CCN(c6ccc([C@@H]7c8ccc(O)cc8OC[C@@H]7c7ccccc7)cc6F)CC5)CC4)ccc3C2=O)C(=O)N1` , thanks.
Reply: 2360

###

Test: Phase 1 study: plasma pharmacokinetics in patients
Format: in vivo, human
Settings: human, plasma, po, 200 mg, patient plasma, oral (1-g) 200 mg QD, C1D15 (steady state), n = 12, mean; read-out: Cmax
Source text: All patients received compound (1-g) orally. The time of day for administration of compound (1-g) was consistent. Compound (1-g) was taken whole with liquid(s) and with food in the morning. The patient avoided taking other medications at the same time as compound (1-g). […] If vomiting occurred after taking the study treatment, the patient was instructed not to retake the dose and record the dose recorded as taken in the dosing diary, noting that the patient vomited and marking the time of vomiting. […]
readout kind: Cmax (ng/mL)
Reply numerically in ng/mL, unit not repeated.

Ask: // returns reported Cmax for input `O=C1CC[C@H](N2Cc3cc(N4CCN(CC5CCN(c6ccc([C@@H]7c8ccc(O)cc8OC[C@@H]7c7ccccc7)cc6F)CC5)CC4)ccc3C2=O)C(=O)N1`
Reply: 1340
